Data credit: paper PMC9077138

Tested on: C. albicans
Assay: In vitro antifungal assay (zone of inhibition, MIC)
Assay type: cell-based, Candida albicans
Conditions: Candida albicans
From the text: The free ligands and their cyclometallated ruthenium(II) carbonyl complexes were screened for their in vitro antimicrobial activity against certain pathogenic bacterial and fungal species at three different concentrations using disc diffusion method. […]
Value kind: zone of inhibition at 100 µg/mL (mm)
I only need the number, in mm, no unit after it.

Please review the following examples before continuing.
CCNC(=S)NN=C(C)c1cc2ccc(OC)cc2oc1=O :: 18.2
CNC(=S)NN=C(C)c1cc2ccc(OC)cc2oc1=O :: 18.2
COc1ccc2cc(/C(C)=N\NC(=S)Nc3ccccc3)c(=O)oc2c1 :: 17.2

Please turn your attention to the following entry.
Req: // fetch zone of inhibition at 100 µg/mL; item: COc1ccc2cc(C(C)=NNC(N)=S)c(=O)oc2c1 ; system: C. albicans
Resp: 17
